# Tested on: Peptidyl-prolyl cis-trans isomerase NIMA-interacting 1 (Homo sapiens, UniProt Q13526)
# Sequence (Q13526 whole entry): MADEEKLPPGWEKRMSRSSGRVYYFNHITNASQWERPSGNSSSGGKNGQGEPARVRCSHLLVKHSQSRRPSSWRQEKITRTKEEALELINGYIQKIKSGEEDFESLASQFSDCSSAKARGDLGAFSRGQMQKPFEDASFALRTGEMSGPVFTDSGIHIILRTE
Measurement type: Kd

>>> df
                           structure_string    value
0  O=C(O)c1[nH]c(-c2cccc(Cl)c2)nc1C(=O)N(Cc1ccccc1)Cc1ccccc1  1400 nM

For the next question, use this molecule.
Form field Kd for item O=C(O)c1nc(-c2cccc(F)c2)[nH]c1C(=O)O on Peptidyl-prolyl cis-trans isomerase NIMA-interacting 1 (Homo sapiens, UniProt Q13526): 520 nM

###

# Tested on: Peptidyl-prolyl cis-trans isomerase NIMA-interacting 1 (Homo sapiens)
# Procedure text: Inhibition of Pin1-mediated cyclin D1 expression in serum starved human PC3 cells
# Format: cell-based, PC-3
Measurement type: EC50 (µM)
Response body: numeric value in µM, unit text excluded.

Please fill in: EC50 reported for O=C(O)c1[nH]c(-c2ccccc2)nc1C(=O)N(CCc1ccccc1)Cc1ccccc1 = 10

###

# Tested on: UniProt Q13526
# Procedure text: Inhibition of Pin1 in serum starved human PC3 cells assessed as reduction in insulin-induced p7)S6 kinase phosphorylation
# Format: cell-based, PC-3
Measurement type: EC50
Numeric answer plus unit only.

The reported EC50 of the compound O=C(O)c1[nH]c(-c2ccccc2)nc1C(=O)N(CCc1ccccc1)Cc1ccccc1 was 30 µM
